# TARGET_SYSTEM: MMP-9 (Homo sapiens, UniProt P14780)
# Construct: endogenous in cells; host or cells: HT1080 human fibrosarcoma cells, TPA-stimulated; enzyme purified from conditioned medium
# Sequence (P14780 107-707 limits assumed): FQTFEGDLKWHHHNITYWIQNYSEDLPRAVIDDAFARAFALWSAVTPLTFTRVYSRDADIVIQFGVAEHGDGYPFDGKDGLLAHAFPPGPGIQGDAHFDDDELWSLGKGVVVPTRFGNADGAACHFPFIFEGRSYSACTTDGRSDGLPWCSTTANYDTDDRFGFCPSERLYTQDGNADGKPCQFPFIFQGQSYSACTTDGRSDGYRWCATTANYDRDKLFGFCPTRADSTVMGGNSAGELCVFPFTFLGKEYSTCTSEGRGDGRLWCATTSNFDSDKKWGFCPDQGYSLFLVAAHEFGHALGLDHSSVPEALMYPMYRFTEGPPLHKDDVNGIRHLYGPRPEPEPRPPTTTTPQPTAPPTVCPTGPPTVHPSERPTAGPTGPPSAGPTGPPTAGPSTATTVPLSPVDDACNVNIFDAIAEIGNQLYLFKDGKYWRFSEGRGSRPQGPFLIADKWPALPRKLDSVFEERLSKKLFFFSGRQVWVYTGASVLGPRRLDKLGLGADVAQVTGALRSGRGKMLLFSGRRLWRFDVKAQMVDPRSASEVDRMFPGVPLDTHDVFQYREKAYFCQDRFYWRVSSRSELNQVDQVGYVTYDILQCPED
# MEASUREMENT_NOTES: Assay for inhibitory activities on MMPs (fluorogenic peptide substrate), MMP-9
# Type: biochemical
# STATED_CONDITIONS: MMP-9 from HT1080 cells, activated by TPCK-Trypsin; substrate MOCAc-Pro-Leu-Gly-Leu-A2Pr(DNP)-Ala-Arg-NH2
# Experimental: MMP-9 was isolated and purified by procedures described in as follows: Yasunori Okada, Yukio Gonoji, Katsumi Naka, Katsuro Tomita, Isao Nakanishi, Kazushi Iwata, Kyoko Yamashita, and Taro Hayakawa: Matrix metalloproteinase 9 (92-kDa gelatinase/type IV collagenase) from HT1080 human fibrosarcoma cells. […] The enzymatic activity on MMPs was analyzed by the method described in “C. […]
Measured log10 IC50 accompanies every entry in the list below.
VALUE_TYPE: log10 IC50 (log10 of the value in nM)

SMILES_NOTATION: CC(C)[C@H](NS(=O)(=O)c1ccc(-c2ncc(-c3ccc(Cl)cc3)o2)cc1)C(=O)O
log10 IC50: 3.37

SMILES_NOTATION: CC(C)[C@@H](NS(=O)(=O)c1ccc(-c2ncc(-c3ccc(Br)cc3)o2)cc1)C(=O)O
log10 IC50: 1.83

SMILES_NOTATION: O=C(O)[C@@H](Cc1ccccc1)NS(=O)(=O)c1ccc(-c2ncc(-c3ccccc3)s2)cc1
log10 IC50: 1.21

SMILES_NOTATION: O=C(O)CNS(=O)(=O)c1ccc(-c2ncc(-c3ccc(Cl)cc3)s2)cc1
log10 IC50: 1.54

SMILES_NOTATION: CC(C)[C@@H](NS(=O)(=O)c1ccc(-c2ncc(-c3ccccc3)s2)cc1)C(=O)O
log10 IC50: 1.14

SMILES_NOTATION: O=C(O)[C@@H](Cc1ccccc1)NS(=O)(=O)c1ccc(-c2ncc(-c3ccc(F)cc3)o2)cc1
log10 IC50: 2.39

SMILES_NOTATION: O=C(O)[C@@H](Cc1ccccc1)NS(=O)(=O)c1ccc(-c2ncc(-c3ccc(F)cc3)s2)cc1
log10 IC50: 1.35

SMILES_NOTATION: O=C(O)[C@@H](Cc1c[nH]c2ccccc12)NS(=O)(=O)c1ccc(-c2ncc(-c3ccc(Cl)cc3)s2)cc1
log10 IC50: 0.63

SMILES_NOTATION: O=C(O)[C@H](Cc1ccccc1)NS(=O)(=O)c1ccc(-c2ncc(-c3ccccc3)s2)cc1
log10 IC50: 1.83

SMILES_NOTATION: CC(C)[C@@H](NS(=O)(=O)c1ccc(-c2ncc(-c3ccc(Br)cc3)s2)cc1)C(=O)O
log10 IC50: 0.60

SMILES_NOTATION: C[C@@H](NS(=O)(=O)c1ccc(-c2ncc(-c3ccc4ccccc4c3)o2)cc1)C(=O)O
log10 IC50: 2.20

SMILES_NOTATION: CSCC[C@@H](NS(=O)(=O)c1ccc(-c2ncc(-c3ccccc3)s2)cc1)C(=O)O
log10 IC50: 1.42

SMILES_NOTATION: CC(C)[C@H](NS(=O)(=O)c1ccc(-c2ncc(-c3ccc(F)cc3)s2)cc1)C(=O)O
log10 IC50: 1.74

SMILES_NOTATION: CC(C)C[C@@H](NS(=O)(=O)c1ccc(-c2ncc(-c3ccc(Cl)cc3)o2)cc1)C(=O)O
log10 IC50: 2.70

SMILES_NOTATION: O=C(O)[C@@H](Cc1ccccc1)NS(=O)(=O)c1ccc(-c2ncc(-c3ccc(Cl)cc3)s2)cc1
log10 IC50: 1.07

SMILES_NOTATION: C[C@@H](NS(=O)(=O)c1ccc(-c2ncc(-c3ccc(Cl)cc3)s2)cc1)C(=O)O
log10 IC50: 0.76

SMILES_NOTATION: COc1ccc(-c2cnc(-c3ccc(S(=O)(=O)N[C@@H](C)C(=O)O)cc3)o2)cc1
log10 IC50: 3.97

SMILES_NOTATION: O=C(O)[C@H](Cc1ccccc1)NS(=O)(=O)c1ccc(-c2ncc(-c3ccc(Cl)cc3)s2)cc1
log10 IC50: 1.29

SMILES_NOTATION: COc1ccc(-c2cnc(-c3ccc(S(=O)(=O)N[C@H](C)C(=O)O)cc3)o2)cc1
log10 IC50: 2.34

SMILES_NOTATION: CC(C)[C@@H](NS(=O)(=O)c1ccc(-c2ncc(-c3ccc(F)cc3)o2)cc1)C(=O)O
log10 IC50: 2.25

SMILES_NOTATION: O=C(O)[C@@H](Cc1ccccc1)NS(=O)(=O)c1ccc(-c2ncc(-c3ccc4ccccc4c3)o2)cc1
log10 IC50: 2.33

SMILES_NOTATION: CC(C)[C@H](NS(=O)(=O)c1ccc(-c2ncc(-c3ccc(F)cc3)o2)cc1)C(=O)O
log10 IC50: 3.26

SMILES_NOTATION: O=C(O)C[C@@H](NS(=O)(=O)c1ccc(-c2ncc(-c3ccc(Cl)cc3)s2)cc1)C(=O)O
log10 IC50: 1.06

SMILES_NOTATION: CC(C)C[C@@H](NS(=O)(=O)c1ccc(-c2ncc(-c3ccc(Cl)cc3)s2)cc1)C(=O)O
log10 IC50: 1.55

SMILES_NOTATION: COc1ccc(-c2cnc(-c3ccc(S(=O)(=O)N[C@@H](C)C(=O)O)cc3)s2)cc1
log10 IC50: 2.04
